metric: melting point (°C)

Solved cases (5 shown):
{"compound": "O=C(Cc1nc(N2CCOCC2)cc(=O)[nH]1)N1c2ccccc2CC1CO (stereo not drawn)", "melting point, °C": 200}
{"compound": "Cn1c(CC(=O)Nc2ccc(F)c(C3CC3)c2)nc(N2CCOCC2)cc1=O", "melting point, °C": 245}
{"compound": "O=C(Cc1nc(N2CCOCC2)cc(=O)[nH]1)Nc1cccc2c1OCCN2", "melting point, °C": 243}
{"compound": "Cn1c(CC(=O)N2CCc3c(Cl)cccc32)nc(N2CCOCC2)cc1=O", "melting point, °C": 235}
{"compound": "CCN(CC)CC1CN(C(=O)Cc2nc(N3CCOCC3)cc(=O)[nH]2)c2ccccc21 (stereo not drawn)", "melting point, °C": 202}

P. CCn1c(CC(=O)Nc2ccc(F)cc2)nc(N2CCOCC2)cc1=O
Q. O=C(Cc1nc(N2CCOCC2)cc(=O)[nH]1)N1CCc2ccccc2C1
[Q] Lower value for measured melting point? Options: P , Q State the label of the item chosen.
[A] Q

----------
System: AKT protein phosphorylated on serine 473 (P-AKT-S473)
test description: Study of pAKT expression in PC3 human prostate carcinoma cells measured by the MSD Multi-spot Biomarker Detection technique (Test B)
Assay type: cell-based
reported conditions: PC-3, inhibition of AKT phosphorylation (P-AKT-S473), MSD sandwich immunoassay, 1 to 2 h incubation, absolute IC50, mean of 2 experiments
pIC50: −log10 of the molar value.
metric: pIC50

Solved cases (3 shown):
{"compound": "O=C(Cc1nc(N2CCOCC2)cc(=O)[nH]1)N1CCc2c(CO)cccc21", "target or system": "AKT protein phosphorylated on serine 473 (P-AKT-S473)", "metric": "pIC50", "result value": 6.27}
{"compound": "CN(C)c1cccc(NC(=O)Cc2nc(N3CCOCC3)cc(=O)[nH]2)c1", "target or system": "AKT protein phosphorylated on serine 473 (P-AKT-S473)", "metric": "pIC50", "result value": 6.84}
{"compound": "Cn1ccc2c(NC(=O)Cc3nc(N4CCOCC4)cc(=O)[nH]3)cccc21", "target or system": "AKT protein phosphorylated on serine 473 (P-AKT-S473)", "metric": "pIC50", "result value": 6.18}

a. O=C(Cc1nc(N2CCOCC2)cc(=O)[nH]1)Nc1ccc(F)cn1
b. O=C(Cc1nc(N2CCOCC2)cc(=O)[nH]1)N1CCc2c(Cl)cccc21
[Q] Could you point out whether the larger pIC50 belongs to a or to b ? State the label of the item chosen.
[A] b

----------
System: AKT protein phosphorylated on serine 473 (P-AKT-S473)
test description: Study of pAKT expression in PC3 human prostate carcinoma cells measured by the MSD Multi-spot Biomarker Detection technique (Test B)
Assay type: cell-based
reported conditions: PC-3, inhibition of AKT phosphorylation (P-AKT-S473), MSD sandwich immunoassay, 1 to 2 h incubation, absolute IC50, mean of 2 experiments
metric: IC50 (µM)

Solved cases (3 shown):
{"mol smiles": "COCCOc1ccccc1NC(=O)Cc1nc(N2CCOCC2)cc(=O)[nH]1", "IC50, µM": 0.056}
{"mol smiles": "Cc1cccc(NC(=O)Cc2nc(N3CCOCC3)cc(=O)[nH]2)c1O", "IC50, µM": 0.189}
{"mol smiles": "O=C(Cc1nc(N2CCOCC2)cc(=O)[nH]1)Nc1ccc(F)c(C(=O)O)c1", "IC50, µM": 10}

1. O=C(Cc1nc(N2CCOCC2)cc(=O)[nH]1)N1CCc2c(Br)cccc21
2. Cn1c(CC(=O)Nc2ccc(F)c(Cl)c2)nc(N2CCOCC2)cc1=O
[Q] Could you point out whether the larger IC50 belongs to 1 or to 2 ? State the label of the item chosen.
[A] 2
(2: 0.079 µM, 1: 0.001 µM)

----------
metric: melting point (°C)

{"compound": "O=C(Cc1nc(N2CCOCC2)cc(=O)[nH]1)Nc1cccc(OC(F)(F)C(F)F)c1 [Example 75]", "melting point, °C": 229}
{"compound": "O=C(Cc1nc(N2CCOCC2)cc(=O)[nH]1)Nc1cccc(F)c1F [Example 12]", "melting point, °C": 248}
{"compound": "O=C(Cc1nc(N2CCOCC2)cc(=O)[nH]1)N1CCc2c(CO)cccc21 [Example 132]", "melting point, °C": 234}
{"compound": "CN(C)C[C@H]1CN(C(=O)Cc2nc(N3CCOCC3)cc(=O)[nH]2)c2ccccc21 [Example 136]", "melting point, °C": 256}

----------
Tested on: AKT protein phosphorylated on serine 473 (P-AKT-S473)
test description: Study of pAKT expression in PC3 human prostate carcinoma cells measured by the MSD Multi-spot Biomarker Detection technique (Test B)
Type: cell-based
reported conditions: PC-3, inhibition of AKT phosphorylation (P-AKT-S473), MSD sandwich immunoassay, 1 to 2 h incubation, absolute IC50, mean of 2 experiments
Procedure: The inhibitory activity of the molecules on AKT phosphorylation is measured either by western blotting using the technique described below, or by the MSD Multi-spot Biomarker detection technique from Meso Scale Discovery also described below. Study of pAKT Expression in PC3 Human Prostate Carcinoma Cells Measured by the MSD Multi-Spot Biomarker Detection Technique from Meso Scale Discovery (Test B): […]
metric: IC50 (nM)

Solved cases (3 shown):
{"mol smiles": "C[C@H]1CN(C(=O)Cc2nc(N3CCOCC3)cc(=O)[nH]2)c2ccccc21", "result value": 57}
{"mol smiles": "Cn1c(CC(=O)N2CCc3c(F)cccc32)nc(N2CCOCC2)cc1=O", "result value": 43}
{"mol smiles": "O=C(Cc1nc(N2CCOCC2)cc(=O)[nH]1)Nc1cccc2sccc12", "result value": 15}

P. N#Cc1cccc(NC(=O)Cc2nc(N3CCOCC3)cc(=O)[nH]2)c1O
Q. O=C(Cc1nc(N2CCOCC2)cc(=O)[nH]1)N1CCCc2c(Cl)cccc21
R. O=C(Cc1nc(N2CCOCC2)cc(=O)[nH]1)N1CCc2ccccc2C1
S. O=C(Cc1nc(N2CCOCC2)cc(=O)[nH]1)Nc1cccc2ocnc12
T. Cn1c(CC(=O)N2CCc3cc(F)c(F)cc32)nc(N2CCOCC2)cc1=O
[Q] // ascending sort on recorded IC50 Could you list the labels in the order requested?
[A] Q, T, S, R, P
(Q: 41 nM, T: 61 nM, S: 148 nM, R: 301 nM, P: 938 nM)

----------
System: AKT protein phosphorylated on serine 473 (P-AKT-S473)
test description: Study of pAKT expression in PC3 human prostate carcinoma cells measured by the MSD Multi-spot Biomarker Detection technique (Test B)
Assay type: cell-based
reported conditions: PC-3, inhibition of AKT phosphorylation (P-AKT-S473), MSD sandwich immunoassay, 1 to 2 h incubation, absolute IC50, mean of 2 experiments
pIC50: −log10 of the molar value.
metric: pIC50

Solved cases (6 shown):
{"compound": "Cc1cccc(NC(=O)Cc2nc(N3CCOCC3)cc(=O)[nH]2)c1F", "metric": "pIC50", "result value": 7.22}
{"compound": "CC1Cc2ccccc2N1C(=O)Cc1nc(N2CCOCC2)cc(=O)n1C (stereo not drawn)", "metric": "pIC50", "result value": 7.11}
{"compound": "Cc1cccc2c1CCN2C(=O)Cc1nc(N2CCOCC2)cc(=O)[nH]1", "metric": "pIC50", "result value": 8.52}
{"compound": "CCOc1cccc(NC(=O)Cc2nc(N3CCOCC3)cc(=O)[nH]2)c1", "metric": "pIC50", "result value": 7.15}
{"compound": "Cn1c(CC(=O)Nc2ccccc2)nc(N2CCOCC2)cc1=O", "metric": "pIC50", "result value": 6.47}
{"compound": "O=C(Cc1nc(N2CCOCC2)cc(=O)[nH]1)Nc1ccc(F)c(OC(F)(F)F)c1", "metric": "pIC50", "result value": 7.17}

I. O=C(Cc1nc(N2CCOCC2)cc(=O)[nH]1)Nc1cccc([N+](=O)[O-])c1O
II. Cn1c(CC(=O)N2CCc3c2ccc(F)c3F)nc(N2CCOCC2)cc1=O
[Q] Lower value for measured pIC50? Options: I , II State the label of the item chosen.
[A] II
(II: 7.16, I: 7.54)

1. O=C(Cc1nc(N2CCOCC2)cc(=O)[nH]1)N1c2ccccc2CC1CO (stereo not drawn)
2. O=C(Cc1nc(N2CCOCC2)cc(=O)[nH]1)Nc1cc(F)cc(F)c1
[Q] Could you point out whether the larger pIC50 belongs to 1 or to 2 ? State the label of the item chosen.
[A] 1
(1: 7.57, 2: 7.15)

A. O=C(Cc1nc(N2CCOCC2)cc(=O)[nH]1)Nc1ccc(F)cc1F
B. CC(C)C(C(=O)Nc1ccc(F)cc1)c1nc(N2CCOCC2)cc(=O)[nH]1 (stereo not drawn)
[Q] Lower value for measured pIC50? Options: A , B State the label of the item chosen.
[A] B
(B: 7.05, A: 7.29)

A. O=C(Cc1nc(N2CCOCC2)cc(=O)[nH]1)Nc1ccc(F)c(I)c1
B. Cn1c(CC(=O)N2CCc3c(Br)cccc32)nc(N2CCOCC2)cc1=O
[Q] Could you point out whether the larger pIC50 belongs to A or to B ? State the label of the item chosen.
[A] A

P. O=C(Cc1nc(N2CCOCC2)cc(=O)[nH]1)N1CCc2c(O)cccc21
Q. O=C(Cc1nc(N2CCOCC2)cc(=O)[nH]1)N1Cc2ccccc2C1
R. CN(C)CC1CN(C(=O)Cc2nc(N3CCOCC3)cc(=O)[nH]2)c2ccccc21 (stereo not drawn)
[Q] // ascending sort on recorded pIC50 Could you list the labels in the order requested?
[A] Q, P, R
